assayTarget: KRas^G12S (Homo sapiens, UniProt P01116, G12S)
Construct: […]; biotin (biotinylated)
Sequence (P01116 1-169 isoform P01116-2 G12S): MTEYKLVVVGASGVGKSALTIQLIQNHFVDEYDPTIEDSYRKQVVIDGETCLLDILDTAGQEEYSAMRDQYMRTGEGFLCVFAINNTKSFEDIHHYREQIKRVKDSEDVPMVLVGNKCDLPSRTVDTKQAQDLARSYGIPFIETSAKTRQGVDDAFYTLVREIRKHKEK
assaySummary: KRas binding assay (TR-FRET displacement of Cy5 labelled tracer)
measuredParameter: IC50 (nM)

Query block: Dear colleague, I am looking for the recorded IC50 of the following compound: "CCc1cccc2cccc(N3CCc4c(nc(OCC56CCCN5CCC6)nc4N4CC5(CNC(=O)N5)C4)C3)c12"
Result block: 3350

Query block: Please look up its IC50: CCc1cccc2cccc(N3CCc4c(nc(OCC56CCCN5CCC6)nc4N4CCCC(c5cc(=O)[nH][nH]5)C4)C3)c12 (centres unmarked)
Result block: 1150

Query block: Would you kindly share the measured IC50 for CCc1cccc2cccc(N3CCc4c(nc(OCC56CCCN5CCC6)nc4N4CCCC5(CC(=O)N5)C4)C3)c12 (centres unmarked) ?
Result block: 45

I: CCc1cccc2cccc(N3CCc4c(nc(OCC56CCCN5CCC6)nc4N4CC5CC(O)CC4C5)C3)c12 (centres unmarked)
II: O=C1NC(=O)C2CN(c3nc(OCC45CCCN4CCC5)nc4c3CCN(c3cccc5cccc(Br)c35)C4)CC12 (centres unmarked)
Query block: Min IC50? I | II Identify your pick by its label.
Result block: II

====

assayTarget: KRas^G13D (Homo sapiens, UniProt P01116, G13D)
Sequence (P01116 1-169 isoform P01116-2 G13D): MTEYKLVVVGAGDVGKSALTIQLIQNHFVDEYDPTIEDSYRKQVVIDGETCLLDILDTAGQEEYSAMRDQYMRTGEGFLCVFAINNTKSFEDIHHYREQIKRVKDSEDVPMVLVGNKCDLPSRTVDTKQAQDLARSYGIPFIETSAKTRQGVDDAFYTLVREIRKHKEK
assaySummary: biochemical
pIC50: −log10 of the molar value.
measuredParameter: pIC50

Consider the worked cases shown below.
Query block: pIC50 for CCc1cccc2cccc(N3CCc4c(nc(OCC56CCCN5CCC6)nc4N4CCCCCC(S(C)(=O)=O)C4)C3)c12 (stereo not shown) ?
Result block: 6.93

Query block: Give the measured pIC50 of CCc1cccc2cccc(N3CCc4c(nc(OCC56CCCN5CCC6)nc4N4CCCC5(CC(=O)N5)C4)C3)c12 (stereo not shown) .
Result block: 7.19

Query block: What measured pIC50 goes with CCc1cccc2cccc(N3CCc4c(nc(OCC56CCCN5CCC6)nc4N4CCCC(c5nc(C)c(C)[nH]5)C4)C3)c12 (stereo not shown) ?
Result block: 5.70

Query block: Sample CCc1cccc2cccc(N3CCc4c(nc(OCC56CCCN5CCC6)nc4N4CCOCC(n5cccn5)C4)C3)c12 (stereo not shown) — what was its pIC50?
Result block: 7.18

I: CCc1cccc2cccc(N3CCc4c(nc(OCC56CCCN5CCC6)nc4N4CCC(CO)C(O)C4)C3)c12 (stereo not shown)
II: CCc1cccc2cccc(N3CCc4c(nc(OCC56CCCN5CCC6)nc4N4CC(C)CC(CO)C4)C3)c12 (stereo not shown)
Query block: Short answer wanted: higher pIC50, I or II ? Give the label under which the chosen entry appears.
Result block: I
(I: 6.82, II: 5.82)

====

assayTarget: KRas^G12R (Homo sapiens, UniProt P01116, G12R)
Construct: […]; biotin (biotinylated); purchased Accelegan Inc
Sequence (P01116 1-169 isoform P01116-2 G12R): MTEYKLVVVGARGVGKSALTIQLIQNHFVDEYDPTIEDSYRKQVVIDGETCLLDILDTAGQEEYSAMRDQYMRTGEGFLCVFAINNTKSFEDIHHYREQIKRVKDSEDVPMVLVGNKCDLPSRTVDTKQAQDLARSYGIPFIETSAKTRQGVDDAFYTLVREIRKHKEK
assaySummary: KRas binding assay (TR-FRET displacement of Cy5 labelled tracer)
pIC50: −log10 of the molar value.
measuredParameter: pIC50

Query block: Returns the measured pIC50 for the input compound. Input: CCc1cccc2cccc(N3CCc4c(nc(OCC56CCCN5CCC6)nc4NC4CC5CC5C4)C3)c12 (stereo not drawn)
Result block: 4.93

Query block: For CCc1c(F)ccc2cc(O)cc(N3CCc4c(nc(OC[C@@]56CCCN5C[C@H](F)C6)nc4N4CCCC(O)(C(F)F)C4)C3)c12 (stereo partly drawn) , what is its reported pIC50?
Result block: 8.52

A: CCc1c(F)ccc2cc(O)cc(N3CCc4c(nc(OC[C@@]56CCCN5C[C@H](F)C6)nc4N4C[C@H]5C[C@@H](O)C[C@H]5C4)C3)c12
B: CCc1cccc2cccc(N3CCc4c(nc(OCC56CCCN5CCC6)nc4N4CCOCC(O)C4)C3)c12 (stereo not drawn)
Query block: Hi, I'm comparing two records. Which one has the lower pIC50, A or B ? Answer = label.
Result block: B

====

assayTarget: KRas^G12R (Homo sapiens, UniProt P01116, G12R)
Construct: […]; biotin (biotinylated)
assaySummary: KRas binding assay (TR-FRET displacement of Cy5 labelled tracer)
pIC50: −log10 of the molar value.
measuredParameter: pIC50

Record excerpt, results attached:
Query block: Reported pIC50 for KRas^G12R (Homo sapiens, UniProt P01116, G12R), given CCc1cccc2cccc(N3CCc4c(nc(OCC56CCCN5CCC6)nc4N4CCCC(c5ncc(C)s5)C4)C3)c12 (centres unmarked) ?
Result block: 6.07

Query block: Quick check: pIC50 on KRas^G12R (Homo sapiens, UniProt P01116, G12R), item CCc1cccc2cccc(N3CCc4c(nc(OCC56CCCN5CCC6)nc4N4CCCC(NC(=O)N(C)C)C4)C3)c12 (centres unmarked) ?
Result block: 6.64

Query block: Item: "CCc1cccc2cccc(N3CCc4c(nc(OCC56CCCN5CCC6)nc4N4CCCN(C(N)=O)CC4)C3)c12" Test system: KRas^G12R (Homo sapiens, UniProt P01116, G12R) Read-out: pIC50 Value: ?
Result block: 6.14

Query block: Enter reported pIC50 observed with KRas^G12R (Homo sapiens, UniProt P01116, G12R) for "CCc1cccc2cccc(N3CCc4c(nc(OCC56CCCN5CCC6)nc4N4CCn5ncc(S(C)(=O)=O)c5C4)C3)c12"
Result block: 4.95

Query block: Recorded pIC50 for "CCc1cccc2cccc(N3CCc4c(nc(OCC56CCCN5CCC6)nc4NCc4c5c(n[nH]c4=O)CCCC5)C3)c12" with KRas^G12R (Homo sapiens, UniProt P01116, G12R), please?
Result block: 5.31

a: CCc1cccc2cccc(N3CCc4c(nc(OCC56CCCN5CCC6)nc4N4CCCC(c5nc(=O)[nH][nH]5)C4)C3)c12 (centres unmarked)
b: CN1CCC[C@H]1COc1nc2c(c(N3CCOCC(C)(O)C3)n1)CCN(c1cccc3cccc(Cl)c13)C2 (some centres unmarked)
Query block: Field: lower recorded pIC50 (choose a or b ) Refer to your chosen item by its label in the answer.
Result block: b

1: CCc1cccc2cccc(N3CCc4c(nc(OCC56CCCN5CCC6)nc4N4CCCCC(C)C4)C3)c12 (centres unmarked)
2: CCc1cccc2cccc(N3CCc4c(nc(OCC56CCCN5CCC6)nc4NCc4nnc(N)o4)C3)c12
Query block: In the pair 1 and 2 , the larger recorded pIC50 belongs to which? Refer to your chosen entry by its label in the reply.
Result block: 1

====

assayTarget: KRas^G12R (Homo sapiens, UniProt P01116, G12R)
Construct: […]; biotin (biotinylated)
assaySummary: KRas binding assay (TR-FRET displacement of Cy5 labelled tracer)
pIC50: −log10 of the molar value.
measuredParameter: pIC50

Consider the following illustrative entries.
Query block: Item under review: "CCc1cccc2cccc(N3CCc4c(nc(OCC56CCCN5CCC6)nc4NCCS(=O)(=O)N=S(C)(C)=O)C3)c12" . Reported pIC50?
Result block: 5.13

Query block: Which measured pIC50 value corresponds to CCc1cccc2cccc(N3CCc4c(nc(OCC56CCCN5CCC6)nc4N4CCC(O)CC(CO)C4)C3)c12 (single isomer, unassigned) [Example 173] ?
Result block: 6.51

Query block: Give the measured pIC50 of "CCc1cccc2cccc(N3CCc4c(nc(OCC56CCCN5CCC6)nc4NCc4nnc(CSC)[nH]4)C3)c12" .
Result block: 4.84

Query block: pIC50 for "CCc1cccc2cccc(N3CCc4c(nc(OCC56CCCN5CCC6)nc4N4CCCn5nc(CO)cc5C4)C3)c12" ?
Result block: 6.99

a: CCc1cccc2cccc(N3CCc4c(nc(OCC56CCCN5CCC6)nc4NC[C@H]4CCC(=O)N4)C3)c12
b: CCc1cccc2cccc(N3CCc4c(nc(OCC56CCCN5CCC6)nc4N4CCC(O)CC(C)C4)C3)c12 (centres unmarked)
Query block: For the two items a and b , which reports the higher pIC50 value? Refer to your chosen item by its label in the answer.
Result block: b
(b: 6.55, a: 5.36)

A: CCc1c(F)ccc2cc(O)cc(N3CCc4c(nc(OC[C@@]56CCCN5C[C@H](F)C6)nc4N4C[C@H]5CC[C@@H](O)[C@H]5C4)C3)c12
B: CCc1cccc2cccc(N3CCc4c(nc(OCC56CCCN5CCC6)nc4N4CCCn5nccc5C4)C3)c12
C: CCc1cccc2cccc(N3CCc4c(nc(OCC56CCCN5CCC6)nc4N4CCC(c5[nH]ncc5N)C4)C3)c12 (centres unmarked)
D: CCc1cccc2cccc(N3CCc4c(nc(OCC56CCCN5CCC6)nc4N4CCCC(S(=O)(=O)NC)C4)C3)c12 (centres unmarked)
E: CCc1cccc2cccc(N3CCc4c(nc(OCC56CCCN5CCC6)nc4N4CCCn5nc(N)cc5C4)C3)c12
Query block: In this exercise, place the 5 molecules in ascending sequence of their recorded pIC50. # respond with the labels, arranged in the requested order
Result block: D, B, C, E, A
(D: 5.83, B: 6.31, C: 6.56, E: 7.13, A: 7.34)

1: CCc1cccc2cccc(N3CCc4c(nc(OCC56CCCN5CCC6)nc4N4Cc5ccnn5CC(O)C4)C3)c12 (centres unmarked)
2: CCc1cccc2cccc(N3CCc4c(nc(OCC56CCCN5CCC6)nc4N4CCCC(O)CC4)C3)c12 (centres unmarked)
Query block: Could you tell me which of these two has the smaller pIC50 figure? First: 1 Second: 2 Respond with the label that goes with your answer.
Result block: 1
